# TESTED TARGET: T1, Brn2 DNA-binding domain (BD-Brn2) (Mus musculus (B6), UniProt P31360 336-435)
# T1 sequence: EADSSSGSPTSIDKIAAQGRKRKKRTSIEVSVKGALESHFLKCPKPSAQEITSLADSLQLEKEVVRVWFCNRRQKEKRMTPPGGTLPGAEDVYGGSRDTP
# ASSAY COMMENT: EMSA; 10% glycerol, 20 mM HEPES pH 7.8, 45 mM KCl, 10 mM NaCl, 1 mM EDTA, 1 mM DTT, 0.2 ug/uL BSA, 0.1% NP-40, 50 ng poly-dIdC; 20 ng each GST protein; room temperature 30 min (heterodimers 4 C); 6% PAGE 0.25x TBE
# MEASUREMENT CONDITIONS: protein: recombinant; tags: GST (N-terminal, pGEX-6P-1); label: 32P-dCTP fill-in of the 5' (dG)5 overhangs of both strands (Methods; control probes are given with GGG)
VALUE TYPE: binding result

> print(dat)
                                     binder  endpoint.value
1  25 (dsDNA) DNA 1: GGGGGCAGATAACTTTGTCCTTTTTGATTTTGAGTGAAGACCCCC DNA 2: GGGGGTCTTCACTCAAAATCAAAAAGGACAAAGTTATCTGCCCCC      no binding
2  46 (dsDNA) DNA 1: GGGGGTTATTTCACAAAATCAACAAATCAAAAAGCCCCC DNA 2: GGGGGCTTTTTGATTTGTTGATTTTGTGAAATAACCCCC      no binding
3  92 (dsDNA) DNA 1: GGGGGATATAATAATAAATCTTTAAAACAAAAAAAAAAACCCCC DNA 2: GGGGGTTTTTTTTTTTGTTTTAAAGATTTATTATTATATCCCCC           binds
4  4b (dsDNA) DNA 1: GGGGGAGTCTCTGTAAAATTAACAAACAAGTTACCCCCC DNA 2: GGGGGGTAACTTGTTTGTTAATTTTACAGAGACTCCCCC           binds
5  113 (dsDNA) DNA 1: GGGGGACTAAGTCATTGTTTATTTCCGTGCTGTTCCCCC DNA 2: GGGGGAACAGCACGGAAATAAACAATGACTTAGTCCCCC      no binding

Taken from paper PMC3713010.
